SUBJECT OF TEST: EGFR L858R/T790M/L718Q Ba/F3 cells (Homo sapiens (Human), UniProt P00533, L718Q/L858R/T790M)
ASSAY REMARKS: Ba/F3 cell growth inhibition (MTS assay), EGFR L858R/T790M/L718Q
Assay type: cell-based
PARTICULARS: 100 nM drug; Table F
Label not satisfied if EGFR activity (% Control, 100 nM drug) L858R/T790M/L718Q falls below 90 % Control; label satisfied in every other case.

compound="CN(C)C/C=C/C(=O)Nc1cccc(Nc2cc(N(C)C(=O)Nc3ccccc3)ncn2)c1 [Compound 21A]" assigned_class=satisfied
compound="C=CC(=O)Nc1cccc(N(C(=O)Nc2ccc(F)c(Cl)c2)c2cc(Nc3ccc(N4CCN(C)CC4)cc3OC)ncn2)c1 [Compound 22A]" assigned_class=satisfied
compound="C=CC(=O)Nc1cccc(Oc2nc(Nc3ccc(N4CCN(C)CC4)cc3OC)ncc2Cl)c1 [WZ4002, reference compound]" assigned_class=satisfied
compound="C=CC(=O)Nc1cccc(Nc2cc(N(C)C(=O)NCc3ccccc3)ncn2)c1 [Compound 17A]" assigned_class="not satisfied"
compound="C=CC(=O)Nc1cccc(N(C(=O)Nc2ccccc2)c2cc(NC)ncn2)c1 [Compound 14A]" assigned_class="not satisfied"
compound=COc1ccc(NC(=O)/C=C/CN(C)C)cc1Nc1ncc2c(n1)N(C)C(=O)N(c1ccccc1)C2 assigned_class=satisfied
compound="C=CC(=O)Nc1cccc(N(C(=O)NCc2ccccc2)c2cc(NC)ncn2)c1 [Compound 15A]" assigned_class="not satisfied"

---

SUBJECT OF TEST: EGFR L718Q/L858R Ba/F3 cells (Homo sapiens (Human), UniProt P00533, L718Q/L858R)
ASSAY REMARKS: Ba/F3 cell growth inhibition (MTS assay), EGFR L858R/L718Q
Assay type: cell-based
PARTICULARS: read-out: EGFR Ba/F3 cells IC 50 (nM) Assay 2 L718Q/L858R; Assay 2; L718Q/L858R
EXPERIMENTAL READOUT: IC50

compound="C=CC(=O)Nc1cccc(N(C(=O)Oc2ccccc2)c2ccnc(Nc3ccc(N4CCN(C)CC4)cc3OC)n2)c1 [Compound 10A]" result="204 nM"

---

SUBJECT OF TEST: EGFR L718Q/L858R Ba/F3 cells (Homo sapiens (Human), UniProt P00533, L718Q/L858R)
ASSAY REMARKS: Ba/F3 cell growth inhibition (MTS assay), EGFR L858R/L718Q
Assay type: cell-based
PARTICULARS: 100 nM drug; Table F
EXPERIMENTAL READOUT: EGFR activity (% Control, 100 nM drug) L858R/L718Q (% Control)

compound="C=CC(=O)Nc1cccc(N(C(=O)Nc2ccccc2)c2cc(NC)ncn2)c1 [Compound 14A]" subject_of_test="EGFR L718Q/L858R Ba/F3 cells (Homo sapiens (Human), UniProt P00533, L718Q/L858R)" numeric_readout=76
compound="C=CC(=O)Nc1cccc(N(C(=O)Nc2ccc(F)c(Cl)c2)c2cc(Nc3ccc(N4CCN(C)CC4)cc3OC)ncn2)c1 [Compound 22A]" subject_of_test="EGFR L718Q/L858R Ba/F3 cells (Homo sapiens (Human), UniProt P00533, L718Q/L858R)" numeric_readout=84
compound="C=CC(=O)Nc1cccc(Nc2cc(N(C)C(=O)Nc3ccccc3)ncn2)c1 [Compound 13A]" subject_of_test="EGFR L718Q/L858R Ba/F3 cells (Homo sapiens (Human), UniProt P00533, L718Q/L858R)" numeric_readout=90
compound="COc1ccc(NC(=O)/C=C/CN(C)C)cc1Nc1ncc2c(n1)N(C)C(=O)N(c1ccccc1)C2 [Compound 7A]" subject_of_test="EGFR L718Q/L858R Ba/F3 cells (Homo sapiens (Human), UniProt P00533, L718Q/L858R)" numeric_readout=96
compound="CN(C)C/C=C/C(=O)Nc1cccc(Nc2cc(N(C)C(=O)Nc3ccccc3)ncn2)c1 [Compound 21A]" subject_of_test="EGFR L718Q/L858R Ba/F3 cells (Homo sapiens (Human), UniProt P00533, L718Q/L858R)" numeric_readout=94
compound="C=CC(=O)Nc1cccc(Oc2nc(Nc3ccc(N4CCN(C)CC4)cc3OC)ncc2Cl)c1 [WZ4002, reference compound]" subject_of_test="EGFR L718Q/L858R Ba/F3 cells (Homo sapiens (Human), UniProt P00533, L718Q/L858R)" numeric_readout=94
compound="C=CC(=O)Nc1ccc(OC)c(Nc2cc(N(C)C(=O)Nc3ccc(F)c(Cl)c3)ncn2)c1 [Compound 18A]" subject_of_test="EGFR L718Q/L858R Ba/F3 cells (Homo sapiens (Human), UniProt P00533, L718Q/L858R)" numeric_readout=88
compound="C=CC(=O)Nc1ccc(OC)c(Nc2cc(N(C)C(=O)NCc3ccccc3)ncn2)c1 [Compound 16A]" subject_of_test="EGFR L718Q/L858R Ba/F3 cells (Homo sapiens (Human), UniProt P00533, L718Q/L858R)" numeric_readout=75
compound="C=CC(=O)Nc1cccc(Nc2cc(N(C)C(=O)Nc3ccc(F)c(Cl)c3)ncn2)c1 [Compound 19A]" subject_of_test="EGFR L718Q/L858R Ba/F3 cells (Homo sapiens (Human), UniProt P00533, L718Q/L858R)" numeric_readout=74
compound="C=CC(=O)Nc1cccc(N(C(=O)NCc2ccccc2)c2cc(NC)ncn2)c1 [Compound 15A]" subject_of_test="EGFR L718Q/L858R Ba/F3 cells (Homo sapiens (Human), UniProt P00533, L718Q/L858R)" numeric_readout=81
compound="C=CC(=O)Nc1ccc(OC)c(Nc2cc(N(C)C(=O)Nc3ccccc3)ncn2)c1 [Compound 12A]" subject_of_test="EGFR L718Q/L858R Ba/F3 cells (Homo sapiens (Human), UniProt P00533, L718Q/L858R)" numeric_readout=47
compound="C=CC(=O)Nc1cccc(Nc2cc(N(C)C(=O)NCc3ccccc3)ncn2)c1 [Compound 17A]" subject_of_test="EGFR L718Q/L858R Ba/F3 cells (Homo sapiens (Human), UniProt P00533, L718Q/L858R)" numeric_readout=81
compound="COc1ccc(NC(=O)/C=C/CN(C)C)cc1Nc1cc(N(C)C(=O)Nc2ccccc2)ncn1 [Compound 20A]" subject_of_test="EGFR L718Q/L858R Ba/F3 cells (Homo sapiens (Human), UniProt P00533, L718Q/L858R)" numeric_readout=48

---

SUBJECT OF TEST: EGFR L858R Ba/F3 cells (Homo sapiens (Human), UniProt P00533, L858R)
ASSAY REMARKS: Ba/F3 cell growth inhibition (MTS assay), EGFR L858R
Format: cell-based
PARTICULARS: 1.0 μM drug; Assay 2
EXPERIMENTAL READOUT: EGFR activity (% Control, 1.0 μM drug) Assay 2 L858R

molecule=C=CC(=O)Nc1ccc(OC)c(N(C(=O)Nc2c(C)cccc2C)c2cc(Nc3ccc(N4CCN(CC)CC4)cc3)ncn2)c1 result="10 % Control"
molecule=C=CC(=O)Nc1cccc(N(C(=O)Nc2ccccc2)c2cc(Nc3ccc(N4CCN(C)CC4)cc3OC)ncn2)c1 result="5 % Control"
molecule="C=CC(=O)Nc1cccc(N(C(=O)Oc2ccccc2)c2ccnc(Nc3ccc(N4CCN(C)CC4)cc3OC)n2)c1 [Compound 10A]" result="3 % Control"
molecule=C=CC(=O)Nc1ccc(OC)c(Nc2cc(N(C(=O)Nc3c(C)cccc3C)c3ccc(N4CCN(CC)CC4)cc3)ncn2)c1 result="2 % Control"
molecule="C=CC(=O)Nc1cccc(N(C(=O)Nc2ccccc2Cl)c2cc(Nc3ccc(N4CCN(C)CC4)cc3OC)ncn2)c1 [Compound 11A]" result="3 % Control"
molecule="C=CC(=O)Nc1cccc(Oc2nc(Nc3ccc(N4CCN(C)CC4)cc3OC)ncc2Cl)c1 [WZ4002, reference compound]" result="2 % Control"
molecule=C=CC(=O)Nc1cccc(N(C(=O)NCc2ccccc2)c2cc(Nc3ccc(N4CCN(C)CC4)cc3OC)ncn2)c1 result="4 % Control"

---

SUBJECT OF TEST: EGFR L718Q/L858R Ba/F3 cells (Homo sapiens (Human), UniProt P00533, L718Q/L858R)
ASSAY REMARKS: Ba/F3 cell growth inhibition (MTS assay), EGFR L858R/L718Q
Format: cell-based
PARTICULARS: read-out: EGFR Ba/F3 cells IC 50 (nM) Assay 1 L718Q/L858R; Assay 1; L718Q/L858R
EXPERIMENTAL READOUT: IC50

compound="C=CC(=O)Nc1cccc(N(C(=O)Oc2ccccc2)c2ccnc(Nc3ccc(N4CCN(C)CC4)cc3OC)n2)c1 [Compound 10A]" experimental_readout=IC50 result="146 nM"

---

Listing of entries alongside the reported IC50.
SUBJECT OF TEST: Ba/F3 TEL-JAK3 (Homo sapiens, UniProt P52333)
Sequence (P52333 whole entry, looked up, change not shown): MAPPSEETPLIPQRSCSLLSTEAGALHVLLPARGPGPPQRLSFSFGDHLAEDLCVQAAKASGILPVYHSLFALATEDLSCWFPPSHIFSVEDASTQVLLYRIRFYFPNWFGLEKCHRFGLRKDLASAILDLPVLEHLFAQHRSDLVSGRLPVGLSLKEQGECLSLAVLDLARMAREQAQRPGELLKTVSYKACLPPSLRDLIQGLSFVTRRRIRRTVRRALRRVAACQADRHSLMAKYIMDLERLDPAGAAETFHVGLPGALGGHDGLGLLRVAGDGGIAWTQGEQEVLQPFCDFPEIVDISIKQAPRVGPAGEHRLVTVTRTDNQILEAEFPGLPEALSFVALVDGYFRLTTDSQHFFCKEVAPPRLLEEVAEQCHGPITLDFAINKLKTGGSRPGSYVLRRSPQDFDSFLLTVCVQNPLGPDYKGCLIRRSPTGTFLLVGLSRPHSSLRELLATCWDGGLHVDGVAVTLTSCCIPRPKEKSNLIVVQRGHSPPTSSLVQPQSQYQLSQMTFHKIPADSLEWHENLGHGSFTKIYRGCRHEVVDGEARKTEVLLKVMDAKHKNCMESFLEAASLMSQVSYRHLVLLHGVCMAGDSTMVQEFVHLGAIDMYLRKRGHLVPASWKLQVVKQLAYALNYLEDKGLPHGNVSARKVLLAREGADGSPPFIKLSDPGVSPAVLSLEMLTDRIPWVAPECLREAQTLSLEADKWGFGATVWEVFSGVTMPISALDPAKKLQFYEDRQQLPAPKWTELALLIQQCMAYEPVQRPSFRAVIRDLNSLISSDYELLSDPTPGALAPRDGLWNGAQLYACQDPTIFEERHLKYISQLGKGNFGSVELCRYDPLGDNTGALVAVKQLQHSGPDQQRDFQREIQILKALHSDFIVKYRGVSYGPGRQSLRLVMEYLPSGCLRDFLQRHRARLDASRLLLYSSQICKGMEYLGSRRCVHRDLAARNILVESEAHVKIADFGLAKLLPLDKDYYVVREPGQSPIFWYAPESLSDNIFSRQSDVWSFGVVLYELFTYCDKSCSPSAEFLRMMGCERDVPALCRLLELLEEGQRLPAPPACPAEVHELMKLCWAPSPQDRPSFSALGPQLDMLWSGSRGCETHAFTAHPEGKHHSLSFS
ASSAY REMARKS: Inhibition of Ba/F3 TEL-JAK3 cell line
Format: cell-based
PARTICULARS: read-out: IC50 (μM) Ba/F3 TEL-JAK3
EXPERIMENTAL READOUT: IC50 (µM)

compound="C=CC(=O)Nc1cccc(N(C(=O)OCc2ccccc2)c2ccnc(Nc3cnn(CCN4CCOCC4)c3)n2)c1 [Compound 85A]" measurement_units=µM numeric_readout=0.189
compound="C=CC(=O)Nc1cccc(N(C(=O)OCc2ccccc2)c2ccnc(Nc3cnn(C4CCOCC4)c3)n2)c1 [Compound 84A]" measurement_units=µM numeric_readout=0.139
compound="C=CC(=O)Nc1cccc(N(C(=O)OCc2ccccc2)c2ccnc(Nc3cnn(C)c3)n2)c1 [Compound 83A]" measurement_units=µM numeric_readout=0.107
